Known pIC50 of a selection of molecules
- ASSAY_TARGET: NHE-1 (Homo sapiens)
- Construct: endogenous in cells
- Sequence (P19634 whole entry): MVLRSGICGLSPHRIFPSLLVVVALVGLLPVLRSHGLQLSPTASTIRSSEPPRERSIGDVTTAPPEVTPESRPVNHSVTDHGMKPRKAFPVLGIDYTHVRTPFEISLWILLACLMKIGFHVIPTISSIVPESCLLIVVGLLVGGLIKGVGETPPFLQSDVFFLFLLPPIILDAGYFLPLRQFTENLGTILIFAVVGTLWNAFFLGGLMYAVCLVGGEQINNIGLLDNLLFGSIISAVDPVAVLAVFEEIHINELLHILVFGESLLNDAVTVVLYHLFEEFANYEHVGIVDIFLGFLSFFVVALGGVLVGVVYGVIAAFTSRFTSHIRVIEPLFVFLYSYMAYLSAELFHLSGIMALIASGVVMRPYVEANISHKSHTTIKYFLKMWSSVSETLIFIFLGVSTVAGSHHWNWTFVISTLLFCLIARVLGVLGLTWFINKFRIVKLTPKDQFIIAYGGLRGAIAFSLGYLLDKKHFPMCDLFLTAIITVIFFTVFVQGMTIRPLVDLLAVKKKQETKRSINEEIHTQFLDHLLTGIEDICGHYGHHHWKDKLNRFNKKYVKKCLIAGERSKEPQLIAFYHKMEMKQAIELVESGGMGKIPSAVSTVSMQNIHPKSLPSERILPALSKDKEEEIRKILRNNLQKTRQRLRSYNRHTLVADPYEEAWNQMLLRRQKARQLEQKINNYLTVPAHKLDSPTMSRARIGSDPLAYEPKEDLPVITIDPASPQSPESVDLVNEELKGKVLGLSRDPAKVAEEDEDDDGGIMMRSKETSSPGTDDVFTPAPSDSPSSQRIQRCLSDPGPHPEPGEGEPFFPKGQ
- TEST: Evaluation of NHE-1 Inhibition (pHi) in HT-29 cells
- DETAILS: BCECF dye, 50% inhibition of the intracellular pH recovery, read-out: NHE1 HT29 pHi IC50
As a rule, pIC50 stands for the negative log10 of the concentration, concentration in M.

Worked examples, 3 molecules total:
Qu. Give pIC50 for the following molecule: `COc1ccc(C(=O)N2CCC(c3ccc(C(=O)NC(=N)N)cc3C(F)(F)F)CC2)c2ccccc12`
Ans. 6.49

Qu. Entry `COc1ccccc1-c1cc(C(=O)N2CCC(c3ccc(C(=O)NC(=N)N)cc3C(F)(F)F)CC2)ccn1` needs its pIC50 filled in; supply it.
Ans. 6.70

Qu. Supply reported pIC50 belonging to this molecule: N=C(N)NC(=O)c1ccc(C2CCN(C(=O)C3CCCNC3)CC2)c(C(F)(F)F)c1 (centres unmarked)
Ans. 7.77

New cases:
Qu. Supply pIC50 value. Item: N=C(N)NC(=O)c1ccc(C2CCN(C(=O)C(N)CO)CC2)c(C(F)(F)F)c1 (centres unmarked)
Ans. 8.30

Qu. # return recorded pIC50 for entry `N=C(N)NC(=O)c1ccc(C2CCN(C(=O)c3ccc(C(F)(F)F)cc3)CC2)c(C(F)(F)F)c1`
Ans. 6.47
